Measured Target: Fibroblast growth factor receptor 2 (Homo sapiens) (UniProt P21802)
Sequence (P21802 22-821 limits assumed): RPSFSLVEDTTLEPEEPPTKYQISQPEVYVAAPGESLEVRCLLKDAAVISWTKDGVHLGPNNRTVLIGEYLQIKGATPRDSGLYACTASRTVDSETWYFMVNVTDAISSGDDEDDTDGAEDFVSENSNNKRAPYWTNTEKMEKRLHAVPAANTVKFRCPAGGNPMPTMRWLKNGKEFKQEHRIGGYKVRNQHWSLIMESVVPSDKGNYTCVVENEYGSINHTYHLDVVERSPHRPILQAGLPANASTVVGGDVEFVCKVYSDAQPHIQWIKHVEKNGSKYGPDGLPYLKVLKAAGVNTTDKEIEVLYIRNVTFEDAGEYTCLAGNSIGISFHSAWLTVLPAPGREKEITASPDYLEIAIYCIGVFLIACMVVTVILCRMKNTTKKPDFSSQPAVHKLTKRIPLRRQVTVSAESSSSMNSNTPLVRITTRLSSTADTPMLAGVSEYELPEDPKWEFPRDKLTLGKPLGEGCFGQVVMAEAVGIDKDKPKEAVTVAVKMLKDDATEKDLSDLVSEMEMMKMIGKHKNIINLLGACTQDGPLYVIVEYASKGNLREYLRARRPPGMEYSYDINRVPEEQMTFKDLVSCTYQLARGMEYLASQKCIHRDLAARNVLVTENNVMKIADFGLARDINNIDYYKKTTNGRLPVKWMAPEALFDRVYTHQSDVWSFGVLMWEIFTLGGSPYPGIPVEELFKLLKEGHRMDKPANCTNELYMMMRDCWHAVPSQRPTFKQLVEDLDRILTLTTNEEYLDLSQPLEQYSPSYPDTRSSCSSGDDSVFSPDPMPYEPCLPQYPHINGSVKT
Measurement Conditions: Compound concentration 20.0 uM
Description: Thermal Shift Assay. Domain: start/stop: T457-E768
Lab note: anything with ΔTm at or over -0.4 °C counts as T; the rest go in F.

Challenge: Could you please find out whether `C=CCc1cccc(CNc2nc3ccccc3n2CCC)c1O` has ΔTm that meets -0.4 °C or exceeds it?
Response given: T

Challenge: Could you please find out whether `Cc1c(NC(=O)c2cc(C(N)=O)nc3cc(F)ccc23)c(C(F)(F)F)nn1Cc1ccc(C#N)cc1` has ΔTm that meets -0.4 °C or exceeds it?
Response given: T

Challenge: Could you please find out whether `CC(C)(F)C[C@H](N[C@@H](c1ccc(-c2ccc(S(C)(=O)=O)cc2)cc1)C(F)(F)F)C(=O)NC1(C#N)CC1` has ΔTm that meets -0.4 °C or exceeds it?
Response given: T

Challenge: Could you please find out whether NC(=O)C(CCCN=C(N)CCl)NC(=O)c1ccccc1 (stereo not drawn) has ΔTm that meets -0.4 °C or exceeds it?
Response given: F

Challenge: Could you please find out whether `Cc1ncsc1-c1ccc([C@H](C)NC(=O)[C@@H]2C[C@@H](O)CN2C(=O)[C@@H](NC(=O)COCCCOCCNC(=O)C[C@@H]2N=C(c3ccc(Cl)cc3)c3c(sc(C)c3C)-n3c(C)nnc32)C(C)(C)C)cc1` has ΔTm that meets -0.4 °C or exceeds it?
Response given: F

Challenge: Could you please find out whether `COc1cc2c(cc1-c1c(C)noc1C)[nH]c1nc(C)nc(-c3ccnc4ccccc34)c12` has ΔTm that meets -0.4 °C or exceeds it?
Response given: F

Challenge: Could you please find out whether `O=[N+]([O-])c1c(Nc2cc(F)cc(Cl)c2)ccc2nonc12` has ΔTm that meets -0.4 °C or exceeds it?
Response given: T

* * *

Measured Target: Peregrin (Homo sapiens) (UniProt P55201)
Sequence (whole entry): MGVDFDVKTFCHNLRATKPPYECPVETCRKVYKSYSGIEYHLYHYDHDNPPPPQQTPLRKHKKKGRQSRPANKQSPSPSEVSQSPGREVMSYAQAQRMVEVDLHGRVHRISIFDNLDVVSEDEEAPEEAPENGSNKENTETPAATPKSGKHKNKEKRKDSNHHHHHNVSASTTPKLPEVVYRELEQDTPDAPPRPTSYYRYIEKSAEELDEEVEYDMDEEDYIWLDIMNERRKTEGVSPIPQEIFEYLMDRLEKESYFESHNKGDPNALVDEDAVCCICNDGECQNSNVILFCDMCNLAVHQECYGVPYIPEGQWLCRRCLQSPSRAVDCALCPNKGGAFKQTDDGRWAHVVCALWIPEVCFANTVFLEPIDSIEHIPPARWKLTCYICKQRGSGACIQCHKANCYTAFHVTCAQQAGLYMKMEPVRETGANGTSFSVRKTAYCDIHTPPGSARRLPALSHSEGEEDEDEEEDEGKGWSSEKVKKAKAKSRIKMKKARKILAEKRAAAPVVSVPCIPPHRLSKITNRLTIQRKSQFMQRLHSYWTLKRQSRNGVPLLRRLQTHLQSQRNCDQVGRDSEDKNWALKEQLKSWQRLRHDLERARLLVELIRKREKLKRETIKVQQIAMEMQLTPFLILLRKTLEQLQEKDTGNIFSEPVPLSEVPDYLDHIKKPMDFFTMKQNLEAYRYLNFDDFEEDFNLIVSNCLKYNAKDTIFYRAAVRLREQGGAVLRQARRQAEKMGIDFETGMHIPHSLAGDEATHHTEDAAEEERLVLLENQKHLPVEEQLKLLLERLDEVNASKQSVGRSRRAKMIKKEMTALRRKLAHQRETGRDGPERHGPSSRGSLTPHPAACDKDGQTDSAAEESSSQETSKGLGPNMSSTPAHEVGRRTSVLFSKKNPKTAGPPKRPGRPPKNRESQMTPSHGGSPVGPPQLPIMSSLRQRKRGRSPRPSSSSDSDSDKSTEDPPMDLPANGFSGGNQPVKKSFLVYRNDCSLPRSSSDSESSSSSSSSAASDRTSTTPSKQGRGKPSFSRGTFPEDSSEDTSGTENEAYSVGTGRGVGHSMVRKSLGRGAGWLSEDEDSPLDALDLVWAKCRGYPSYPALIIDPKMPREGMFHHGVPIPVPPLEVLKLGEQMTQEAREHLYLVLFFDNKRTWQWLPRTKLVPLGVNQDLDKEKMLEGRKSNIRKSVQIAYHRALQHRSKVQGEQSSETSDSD
Measurement Conditions: Compound concentration 20.0 uM
Endpoint Label: ΔTm
The number alone won't do; follow it with the unit.

ΔTm reading for O=C(N1CCCCC1c1ccccc1)n1cc(-c2ccc(-c3cccc(CO)c3)cc2)nn1 (centres undefined) : -1.91 °C

ΔTm reading for `Nc1cccc(CNC(=O)c2ccc(Oc3ccc(OCc4cccc(F)c4)cc3)nc2)c1` : 2.81 °C

ΔTm reading for `Cc1nn(CC(F)(F)F)cc1Nc1ncc(Br)c(NCc2ccc(S(N)(=O)=O)cc2)n1` : -0.36 °C

ΔTm reading for `Cc1nnn(C)c1-c1cnc2c3cc4cnn(C)c4cc3n([C@H](c3ccccc3)C3CCOCC3)c2c1` : -0.09 °C

ΔTm reading for Cn1nc(C(C)(C)C)cc1C(=O)NC(Cc1cccc(Cl)c1)C(=O)NCC#N (centres undefined) : 2.3 °C

ΔTm reading for `CC(=O)Nc1ccc(-c2cc(-c3ccccc3)nc3cc(C(=O)NCCCn4ccnc4)nn23)cc1` : -0.4 °C

ΔTm reading for `O=C(CCCCCCNC(=O)c1cnc(N(c2ccccc2)c2ccccc2Cl)nc1)NO` : -1.49 °C

ΔTm reading for `CC1(C)CC[C@]2(C(=O)O)CC[C@]3(C)C(=CC[C@@H]4[C@@]5(C)C=C(O)C(=O)C(C)(C)[C@@H]5CC[C@]43C)[C@@H]2C1` : 2.32 °C

ΔTm reading for `COc1ncc(C)cc1CC[C@@](O)(CC(=O)O)C(=O)O` : 1.67 °C

* * *

Measured Target: Peregrin (Homo sapiens) (UniProt P55201)
Measurement Conditions: Compound concentration 20.0 uM
Endpoint Label: ΔTm (°C)
# output: bare number, implied unit °C

ΔTm reading for CC(c1cccc2ccccc12)n1cnc2c(=O)[nH]c(Cc3ccccc3)nc21 (centres undefined) : -0.65

ΔTm reading for `c1ccc(Cn2c(-c3ccc(OC[C@H](C4CCNCC4)n4c(-c5ccccc5)nc5ccccc54)cc3)nc3ccccc32)cc1` : -5.25

ΔTm reading for `COc1ccc(Cc2nc(O)c3c(C)nc([C@@H](CCCc4ccccc4)[C@@H](C)O)n3n2)cc1OC` : 0.21

ΔTm reading for NC(=O)C1CN(CCCCC(c2ccc(F)cc2)c2ccc(F)cc2)CCN1CC(=O)Nc1c(Cl)cc(N)cc1Cl (centres undefined) : -3.73

ΔTm reading for `CNc1nccc(CN([C@H]2CC[C@H](N)CC2)S(=O)(=O)c2ccc(S(=O)(=O)N(Cc3ccc(Cl)cc3)C3CCCC3)cc2)n1` : -1.21

ΔTm reading for `Nc1ccc(-c2cccs2)cc1NC(=O)c1ccc(NC=O)cc1` : 2.98

ΔTm reading for `COc1cc2c(cc1OC)[C@H]1C[C@@H](OC(=O)[C@@H](N)C(C)C)[C@H](CC(C)C)CN1CC2` : -1.11

ΔTm reading for `CC(=O)N1CCc2c(c(N3CCCc4cc(-c5cnn(C)c5)c(C(F)F)cc43)nn2C2CCOCC2)C1` : -1.44

ΔTm reading for `CC(C)c1ccc(-c2cc(=O)c3ccccc3o2)cc1` : -0.32

* * *

Provide the recorded ΔTm for the entries that follow.
Measured Target: Fibroblast growth factor receptor 2 (Homo sapiens)
Measurement Conditions: Compound concentration 20.0 uM

ΔTm reading for `Cc1ccc([N+](=O)[O-])cc1S(=O)(=O)N(C)C` : -0.67 °C

ΔTm reading for `COc1cc(C(C)C)c2c(c1)S(=O)(=O)N(COc1cc(=O)n3cccc(OCCN4CCCCC4)c3n1)C2=O` : 1.04 °C

ΔTm reading for `CN(Cc1cc(Br)cc(Br)c1N)C1CCCCC1` : -0.25 °C

ΔTm reading for `CS(=O)(=O)c1ccc(-c2cnc(NCc3ccco3)n3cnnc23)cc1` : 0.54 °C

ΔTm reading for `O=[N+]([O-])c1cc(O)c(O)c([N+](=O)[O-])c1` : 0.52 °C

ΔTm reading for CCCC1O[C@@H]2C[C@H]3[C@@H]4CCC5=CC(=O)C=C[C@]5(C)[C@H]4[C@@H](O)C[C@]3(C)[C@]2(C(=O)CO)O1 (stereo partly drawn) : -0.77 °C

ΔTm reading for `O=C(C[C@@H](C(F)F)n1ccc(F)n1)N1CCC(O)(Cn2cnc3c(cnn3-c3ccc(F)cc3)c2=O)CC1` : 0.2 °C

ΔTm reading for `CC(C)c1ccc(-c2cc(=O)c3ccccc3o2)cc1` : -0.13 °C

* * *

Measured Target: Peregrin (Homo sapiens) (UniProt P55201)
Measurement Conditions: Compound concentration 20.0 uM
Endpoint Label: ΔTm (°C)
# output: bare number, implied unit °C

ΔTm reading for `COc1cc2c(cc1-c1c(C)noc1C)[nH]c1nc(C)nc(Nc3cc(C4CC4)nn3C)c12` : 1.07

ΔTm reading for `O=C(NCCCOc1ccc2[nH]c(=O)ccc2c1)N(C1CC1)[C@@H]1CCCC[C@H]1O` : 1.1

ΔTm reading for `Cc1cc(C)cc(Oc2ccc(CNC(=O)[C@H](C)N)cc2C)c1` : -1.68

ΔTm reading for `Cn1c(=O)cc(N2CCC[C@@H](N)C2)n(Cc2ccccc2C#N)c1=O` : 2.35

ΔTm reading for `COC[C@@H]1CCCN1S(=O)(=O)c1ccc2c(c1)C(=O)C(=O)N2` : -0.85

ΔTm reading for `COc1cc(C(=O)N2C[C@H](N)CC[C@@H]2C)cc2nc(-c3cc4cccnc4n3CC3CC3)n(C)c12` : 0.21

ΔTm reading for `O=C(NC1CCC1)c1ccc2nc(-c3cccc(NS(=O)(=O)NCCN4CCCCC4)c3)cn2c1` : 1.25
